B1: library; numbered along this chain (parent)
chain: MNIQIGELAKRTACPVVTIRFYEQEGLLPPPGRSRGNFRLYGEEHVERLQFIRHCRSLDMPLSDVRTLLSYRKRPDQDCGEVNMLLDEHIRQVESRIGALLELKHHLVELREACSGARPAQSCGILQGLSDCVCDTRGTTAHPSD

Variants of: B1
Assay: sfGFP reporter fluorescence (15 h) (µM FITC); higher = higher leak
Conditions: library round: Round 0; ligand: none
Result type: sfGFP reporter fluorescence

### Prompt # return recorded sfGFP reporter fluorescence for entry MNIQIGELAKRTACPVVTIRFYEQEGLLPPPGRSRGNFRLYGEEHVERLQFIRHCRSLDMPLSSVRTLLSYRKRPDQDCGEVNMLLDEHIRQVESRIGALLELKHHLVELREACSGARPAQSCGILQGLSDCVCDTRGTTAHPSD [D64S]
### Response 0.0944

### Prompt Provide only the value of recorded sfGFP reporter fluorescence for MNIQIGELAKRTACPVVTIRFYEQEGLLPPPGRSRGNFRLYGEEHVERLQFIRHCRSLDMPLSDVRTLLSYRKRPDQDCGEVNMLLDEHIRQVESRIGALLELKHHLVELREACSGARPAQSCGILQGLSTCVCDTRGTTAHPSD [D131T]
### Response 0.0627

### Prompt Consider the variant MNIQIGFLAKRTACPVVTIRFYEQEGLLPPPGRSRGNFRLYGEEHVERLQFIRHCRSLDMPLSDVRTLLSYRKRPDQDCGEVNMLLDEHIRQVESRIGALLELKHHLVELREACSGARPAQSCGILQGLSDCVCDTRGTTAHPSD [E7F] and give its recorded sfGFP reporter fluorescence.
### Response 0.0601

### Prompt Please report sfGFP reporter fluorescence for the following variant: MNIQIGELAKRTACPVVTIRFYEQEGLLPPPGRSRGNFRLYGEEHVERLQFIRHCRSLDLPLSDVRTLLSYRKRPDQDCGEVNMLLDEHIRQVESRIGALLELVHHLVELREACSGARPAQSCGILQMLSDCVCDTRGTTAHPSD [M60L K104V G128M]
### Response 0.69

### Prompt # return recorded sfGFP reporter fluorescence for input MNIQIGELAKRTACPVVTIRFYEQEGLLPPPGRSRGNFRLYGEEHVERLQFIRHCRSLDMPLSDVRTLLSYRKRPDQDCGEVNMLLDEHIRQVESRIGALLELKHHLVELREAQSGARPAQSCGILQGLSDCVCDTRGTTAHPSD [C114Q]
### Response 0.0568

### Prompt Using the record for MNIQIGELAKRTACPVVTIRFYEQEGLLPPPGRSRGNFRLYGEEHVERLQFIRHCRSLDMPLSDVRTLLSYRKRPDQDCGEVNMLLDEHIRQVESRIGALLELKHHLVELREACSGARPAQSCGILQGQSDCVCDTRGTTAHPSD [L129Q] , state its measured sfGFP reporter fluorescence.
### Response 0.0588

### Prompt Supply sfGFP reporter fluorescence value. Item: MNIQIGELAKRTACPVVTIRFVEQEGLLPPPGRSRGNFRLYGEEHVERLQFIRHCRSLDMPLSDVRTLLSYRKRPDQDCGEVNMLLDEHIRQVESRIGALLELKHHLVELREACSGARPAQSCGILQGLSDCVCDTRGTTAHPSD [Y22V]
### Response 0.0636

### Prompt // fetch sfGFP reporter fluorescence given entry MNIQIGELAKRTACPVVTIRFYEQEGLLPPPGCSRGNFRLYGEEHVERLQFIRHCRSLDMPLSDVRTLLSYRKRPDQDCGEVNMLLDEHIRQVESRIGALLELKHHLVELREACSGARPAQSCGILQGLSDCVCDTRGTTAHPSD [R33C]
### Response 0.0592

### Prompt Return sfGFP reporter fluorescence (reported value) for this variant: MNIQIGELAKRTACPVVTIRFYEQEGLLPPPGRSRGNFRLYGEEHVERLQFIRHCRSLDMPLSDVRTLLSYRKRPDQDCGEVNMLLDEHIRQVESRIGALLELVHHCVELREACSGARPAQSCGILQGLSDCVCDTRGTTAHPSD [K104V L107C]
### Response 0.184

### Prompt Check the records and state sfGFP reporter fluorescence for MNIQIGELAKRTACPVVTIRFYEQEGLLPPPGRSRGNFRLYGEEHVERLQFIRHCRSLDMPLSDVRTLLSYRKRPDQDCGEVNMLLDEHIRQVESRIGALLELKHHLVELREACSGARPAQSCGILQGLSDAVCDTRGTTAHPSD [C132A]
### Response 0.0695

### Prompt Provide only the value of recorded sfGFP reporter fluorescence for MNIQIGELAKRTACPVVTIRFYEQEGLLPPPGRSRKNFRLYGEEHVERLQFIRHCRSLDMPLSDVRTLLSYRKRPDQDCGEVNMLLDEHIRQVESRIGALLELKHHLVELREACSGARPAQSCGILQGLSDCVCDTRGTTAHPSD [G36K]
### Response 0.063

### Prompt Supply sfGFP reporter fluorescence value. Item: MNIQIGELAKRTACPVVTIRFYEQEGLLPPPGRSRGNFRLYGQEHVERLQFIRHCRSLDMPLSDVRTLLSYRKRPDQDCGEVNMLLDEHIRQVESRIGALLELKHHLVELREACSGARPAQSCGILQGLSDCVCDTRGTTAHPSD [E43Q]
### Response 0.0614

### Prompt Give recorded sfGFP reporter fluorescence. MNIQIGELAKRTACPVVTIRFYEQEGLIPPPGRSRGNFRLYGEEHVERLQFIRHCRSLDMPLSDVRTLLSYRKRPDQDCGEVNMLLDEHIRQVESRIGALLELKHHLVELREACSGARPAQSCGILQGLSDCVCDTRGTTAHPSD [L28I]
### Response 0.0588

### Prompt Tell me measured sfGFP reporter fluorescence for MNIQIGELAKRTACPVVTIRFYEQEGLLPPPGRSRGNFRLYGEEHVERLQFIRHCRSLDMPLSDVRTLLSYRKRPDQDCGEVNMLLDEHIRQVESRKGALLELKHHLVELREACSGARPAQSCGILQGLSDCVCDTRGTTAHPSD [I97K] please.
### Response 0.0607

### Prompt Give recorded sfGFP reporter fluorescence. MNIQIGELAKRTACPVVTIRFYEQEGLLPPPGRSRGNFRLYGEEHVERLQFIRHCRSLDMFLSDVRTLLSYRKRPDQDCGEVNMLLDEHIRQVESRIGALLELKHHLVELREACSGARPAQSCGILQGLSDCVCDTRGTTAHPSD [P61F]
### Response 0.0608

### Prompt Please look at this variant and report its sfGFP reporter fluorescence: MNIQIGELAKRTACPVVTIRFYEQEGLLPPPGRSRGNFRLYGEEHVERLQFIRHCRSLDMPLSCVRTLLSYRKRPDQDCGEVNMLLDEHIRQVESRIGALLELKHHLVELREACSGARPAQSCGILQGLSDCVCDTRGTTAHPSD [D64C]
### Response 0.0848

### Prompt Read off the recorded sfGFP reporter fluorescence for MNIQIGELAKRTACPVVTIRFYEQEGLLPPPGRSRGNFRLYGEEHRERLQFIRHCRSLDMPLSDVRTLLSYRKRPDQDCGEVNMLLDEHIRQVESRIGALLELKHHLVELREACSGARPAQSCGILQGLSDCVCDTRGTTAHPSD [V46R]
### Response 0.0594

### Prompt Given the variant MNIQIGELAKRTACPVVTIRFYEQEALLPPPGRSRGNFRLYGEEHVERLQFIRHCRSLDMPLSDVRTLLSYRKRPDQDCGEVNMLLDEHIRQVESRIGALLELKHHLVELREACSGARPAQSCGILQGLSDCVCDTRGTTAHPSD [G26A] , write its reported sfGFP reporter fluorescence.
### Response 0.063

### Prompt Return the recorded sfGFP reporter fluorescence value; entry: MNIQIGELAKRTACPVVTIRFYEQEGLLPPPGRSRTNFRLYGEEHVERLQFIRHCRSLDMPLSDVRTLLSYRKRPDQDCGEVNMLLDEHIRQVESRIGALLELKHHLVELREACSGARPAQSCGILQGLSDCVCDTRGTTAHPSD [G36T]
### Response 0.0647

### Prompt Quick one: give measured sfGFP reporter fluorescence for MNIQIGELAKRTACPVVTIRFYEQEGLLPPPGRSRGNFRLYGEEHVERLQFIRHCRSLDMPLSDVRTLLSYRKRPDQDCGEVNMLLDEHIRQVESRIGALLELKHHLVELREAWSGARPAQSCGILQGLSDCVCDTRGTTAHPSD [C114W]
### Response 0.0586

### Prompt Tell me sfGFP reporter fluorescence reported for MNIQIGELAKRTACPVVTIRFYEQEGLLPPPGRSRGNFRLYGEEHVERLQFIRHCRSLDMPLSDVRTLLSYRKRPDQDCGEVNMELDEHIRQVESRIGALLELKHHLVELREACSGARPAQSCGILQGLSDCVCDTRGTTAHPSD [L85E]
### Response 0.0605

### Prompt Identify sfGFP reporter fluorescence associated with the variant MNIQIGELAKRTACPVVTIRFYEQEGLLPPPGRSRGNFRLYGEEHVERLQFIRHCRSLDMPLSDVRTLLSYRKRPDQDCGETNMLLDEHIRQVESRIGALLELKHHLVELREACSGARPAQSCGILQGLSDCVCDTRGTTAHPSD [V82T]
### Response 0.0588
